Molecular target: T1, biotin-labeled human PAD4 protein (human, UniProt Q9UM07 1-663, biotin on the Avi tag (biotin ligase BirA))
T1 construct: also called Avi tag-human PAD4; biotin-labeled PAD4; not shown: Avi tag left on the N-terminal side after the GST tag was cleaved with PreScission Protease
T1 sequence (Q9UM07 whole entry): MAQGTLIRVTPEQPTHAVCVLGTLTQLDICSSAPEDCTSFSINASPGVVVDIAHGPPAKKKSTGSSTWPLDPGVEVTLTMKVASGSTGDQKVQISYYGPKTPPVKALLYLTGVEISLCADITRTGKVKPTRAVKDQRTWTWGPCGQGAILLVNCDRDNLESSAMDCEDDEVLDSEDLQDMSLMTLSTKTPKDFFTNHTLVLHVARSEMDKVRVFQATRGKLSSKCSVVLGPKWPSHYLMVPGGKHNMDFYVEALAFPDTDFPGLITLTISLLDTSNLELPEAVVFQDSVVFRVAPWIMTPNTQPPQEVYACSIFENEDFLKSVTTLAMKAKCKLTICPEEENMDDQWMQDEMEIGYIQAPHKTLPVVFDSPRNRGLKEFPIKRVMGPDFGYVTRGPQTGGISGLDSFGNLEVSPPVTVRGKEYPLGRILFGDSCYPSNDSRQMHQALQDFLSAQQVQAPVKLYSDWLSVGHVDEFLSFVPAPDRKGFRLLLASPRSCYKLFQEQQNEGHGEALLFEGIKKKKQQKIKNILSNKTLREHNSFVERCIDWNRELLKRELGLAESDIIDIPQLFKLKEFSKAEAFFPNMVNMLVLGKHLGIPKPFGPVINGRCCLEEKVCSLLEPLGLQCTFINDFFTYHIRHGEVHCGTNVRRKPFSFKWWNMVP
Assay: SPR, Biacore T200, biotin-labeled human PAD4 captured on chip, antibody as analyte, single-cycle, 1:1 model
MEASURED PARAMETER: kon
Remember to quote the unit after the number.

{"BINDER": "anti-PAD4 antibody 2-1-47 (antibody, human IgG1, lambda, V domains shown, Lib2(4R)-1-47 with the 84th asparagine of the heavy chain substituted with serine; full-length IgG from ExpiCHO) VH: EVQLLESGGGLVQPGGSLRLSCAASGFTFSTYAMGWVRQAPGKGLEFVAAIRNDGSWTGYGTPYKTRFTISRDNSKNTLYLQMSSLRAEDTAVYYCAKYTGSSGGSIGAWGQGTLVTVSS VL: SYELTQPPSVSVSPGQTARITCSGGNRNYYYGWYQQKPGQAPVTVIYANDKRPSGIPERFSGSNSGSTTTLTISGVQAEDEADYYCGTATTGKYVFGGGTKLTVLG", "kon": "1.61e+07 M⁻¹ s⁻¹"}
{"BINDER": "anti-PAD4 antibody 3-1-39 (antibody, human IgG1, lambda, V domains shown, Lib1(6R)-1-39 with the 84th asparagine of the heavy chain substituted with serine; full-length IgG from ExpiCHO) VH: EVQLLESGGGLVQPGGSLRLSCAASGFTFSTYAMGWVRQAPGKGLEFVAAIRNDGSWTGTSVNAKTRFTISRDNSKNTLYLQMSSLRAEDTAVYYCAKYTGSSGGSIGAWGQGTLVTVSS VL: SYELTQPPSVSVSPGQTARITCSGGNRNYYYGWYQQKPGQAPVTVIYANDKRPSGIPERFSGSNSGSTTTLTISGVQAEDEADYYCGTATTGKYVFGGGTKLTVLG", "kon": "1.3e+07 M⁻¹ s⁻¹"}
{"BINDER": "anti-PAD4 antibody 3-2-37 (antibody, human IgG1, lambda, V domains shown, Lib1(6R)-2-37 with the 84th asparagine of the heavy chain substituted with serine; full-length IgG from ExpiCHO) VH: EVQLLESGGGLVQPGGSLRLSCAASGFTFSTYAMGWVRQAPGKGLEFVAAIRNDGSWTGIGYNQKSRFTISRDNSKNTLYLQMSSLRAEDTAVYYCGKYTGSSGGSIGAWGQGTLVTVSS VL: SYELTQPPSVSVSPGQTARITCSGGNRNYYYGWYQQKPGQAPVTVIYANDKRPSGIPERFSGSNSGSTTTLTISGVQAEDEADYYCGTALTGKYVFGGGTKLTVLG", "kon": "8.51e+06 M⁻¹ s⁻¹"}

# evaluate next
Query kon for anti-PAD4 antibody 4-2-25 (antibody, human IgG1, lambda, V domains shown, Lib2(5R)-2-25 with the 84th asparagine of the heavy chain substituted with serine; full-length IgG from ExpiCHO) VH: EVQLLESGGGLVQPGGSLRLSCAASGFTFSTYAMGWVRQAPGKGLEFVAAIRNDGSWTGYPPPLKGRFTISRDNSKNTLYLQMSSLRAEDTAVYYCAKYTGSSGGSIGAWGQGTLVTVSS VL: SYELTQPPSVSVSPGQTARITCSGGNRNYYYGWYQQKPGQAPVTVIYANDKRPSGIPERFSGSNSGSTTTLTISGVQAEDEADYYCGTAYTGKYVFGGGTKLTVLG 1.47e+07 M⁻¹ s⁻¹
